Source listed as PubChem BioAssay (NCI).

Parameter: TGI. Scope: all listed entries.
System: OVCAR-3 ovarian
EXPERIMENT: NCI tumour cell line growth inhibition, 48 h
RECORDED_METRIC: TGI

- MOLECULE: "COc1cc(CNc2ccccc2C(=O)N2CCN(C(=O)c3cc(-c4cc(OC)c(OC)c(OC)c4)n4nc(-c5ccccc5)cc4n3)CC2)cc(OC)c1OC"
  RECORDED_METRIC: "TGI"
  OBSERVED_RESULT: "9.59 µM"
- MOLECULE: "CN(c1ccccc1Cl)S(=O)(=O)c1ccc([N+](=O)[O-])cc1"
  RECORDED_METRIC: "TGI"
  OBSERVED_RESULT: "> 100 µM"
- MOLECULE: "CC(C)(C)C(=O)OCC1CCC(n2cnc3c(=O)[nH]c(N)nc32)O1 (stereo not given)"
  RECORDED_METRIC: "TGI"
  OBSERVED_RESULT: "> 100 µM"
- MOLECULE: "CCOC(=O)CC1C(COC(=O)NC)OC(n2cnc3c(NC(=O)Nc4ccccc4)ncnc32)C1O[Si](C)(C)C(C)(C)C (stereo not given)"
  RECORDED_METRIC: "TGI"
  OBSERVED_RESULT: "5.6 µM"
- MOLECULE: "SCCSCCCSCCS"
  RECORDED_METRIC: "TGI"
  OBSERVED_RESULT: "> 100 µM"
- MOLECULE: "Cc1ccc(/C(O)=C/c2nc3ccccc3s/c2=N/CS(=O)(=O)c2ccc(C)cc2)cc1"
  RECORDED_METRIC: "TGI"
  OBSERVED_RESULT: "> 10 µM"
- MOLECULE: "Clc1ccc(C2Nc3ccccc3C3=NCCN32)cc1 (stereo not given)"
  RECORDED_METRIC: "TGI"
  OBSERVED_RESULT: "> 100 µM"
- MOLECULE: "CC(=O)NC1=C[C@@H]([C@H]2COC(C)(C)O2)OC1=O"
  RECORDED_METRIC: "TGI"
  OBSERVED_RESULT: "> 100 µM"
- MOLECULE: "COc1c(O)cc2c(c1O)C(=O)/C(=C/c1ccc(O)cc1)CO2"
  RECORDED_METRIC: "TGI"
  OBSERVED_RESULT: "55.5 µM"
- MOLECULE: "N#Cc1c(-c2ccccc2)[nH]c(=O)n(C2OC(CO)C(O)C(O)C2O)c1=O (stereo not given)"
  RECORDED_METRIC: "TGI"
  OBSERVED_RESULT: "> 100 µM"
